MEASUREMENT KIND: intrinsic clearance, rat liver microsomes (mL/min/kg)
Kindly provide the numeric value in mL/min/kg only, without the unit symbol.

Using the record for `O=C(COc1ccc2oc3c(c2c1)CCCC3)N1CCOCC1` , report its intrinsic clearance, rat liver microsomes.
2980

Ok, now `O=C(CSc1ccc2c(c1)OCCO2)NC1CCCC1`
5820

And the next one, `Cc1ccc(C)c2nc3c(cc12)CNCCO3` ?
234

Also, `CNc1cc(C)nc(-c2ccnc3c2ccn3C)n1` please.
82.2

Check `O=C1CCCN1CCCN1CCC(n2c(=O)[nH]c3ccccc32)CC1` too.
15.7

Then `CN(CCO)C(=O)c1ccc(-c2cccc(C(F)(F)F)n2)cc1` ?
54.3

Continuing:
Fill blank: measured intrinsic clearance, rat liver microsomes of the molecule `CCCS(=O)(=O)Nc1ccc(F)c(C(=O)c2c[nH]c3ncc(Cl)cc23)c1F` is ____.
22.2

What do you have for `CN(C)c1nc(N)nc(Sc2ccccc2)n1` ?
642

Ok, now `Cc1[nH]nc(CCC(=O)NCCCOC2CCCC2)c1C`
2410

One more molecule: O=C(C1CC1c1ccc(F)cc1)N1CCC(n2c(=O)[nH]c3ccccc32)CC1 (stereo not drawn)
233

Now this one: `C=CCNC1=C2C[C@@H](C)C[C@@H](OC)[C@@H](O)[C@@H](C)/C=C(\C)[C@@H](OC(N)=O)[C@@H](OC)/C=C\C=C(/C)C(=O)NC(=CC1=O)C2=O`
1010

Consider next the molecule `O=S(=O)(c1ccccc1)N(CC(F)(F)F)c1ccc(C(O)(C(F)(F)F)C(F)(F)F)cc1` in the same way.
14.6

# iterate: `COc1ccccc1CNc1cn[nH]c(=O)c1Cl`
104

Item: `CNc1ncnc2c1ncn2[C@H]1CC[C@H](NC(=O)CCCNC(=O)OC(C)(C)C)[C@H](O)[C@H]1O`
19.9

Input `Cc1ccc(N2CCN(C(=O)c3c(C)nc4sccn34)CC2=O)cc1`
32.3

Item: `Cn1ccnc1CCNC(=O)c1cccc2cccnc12`
150

Continue with `CSC1(CNC(=O)N2CCC=C(c3ccccc3)C2)CCOCC1`
2750

Lookup `O=C(Cc1n[nH]c2ccccc12)N1CCCO1`
31.6

And `O=C(Nc1ccc2c(c1)OCCCO2)c1cnn(Cc2ccccc2)c1` ?
492

----------
In this section, each of the compounds is paired with its reported intrinsic clearance, rat liver microsomes.
Output spec: scalar in mL/min/kg, unitless text.

Sample records with intrinsic clearance, rat liver microsomes:
Given the compound `CCc1nc(CN2CCC(=O)Nc3cc(F)ccc32)n[nH]1` , what is its reported intrinsic clearance, rat liver microsomes?
16.1

Next compound up: `Cc1ccccc1CS(=O)(=O)c1ncc(Cl)c(C(=O)Nc2sc3c(c2C#N)CCCC3)n1`
2120

Further, for `CCc1nnc(N2CCCO2)c(C#N)c1CC` ?
147

Cool, now `O=c1c2cccnc2ncn1Cc1ccc2c(c1)CCCC2`
711

// same read-out, input: `O[C@@H]1C[C@@H](c2nc(-c3cccnc3)no2)N(CCCc2ccccc2)C1`
1900

Further cases:
Fill in: intrinsic clearance, rat liver microsomes of `N#CC1(C(=O)NCC2(C3CC3)CC2)CCCCC1` is ___
1080

For `Cc1ccc(C)c(OCC(=O)N2CCC(C(=O)Nc3ccccc3)CC2)c1` then?
1390

Now the compound `c1cnc(N2CCC(Cc3ccncc3)CC2)nc1`
146

Also need `N#Cc1cccnc1NCCc1cn2c(n1)CCCC2` , thanks.
2440

Same for `CCN(CC)S(=O)(=O)c1ccc2c(c1)CCN2CC(=O)NCc1ccccc1F`
1800

What about `Cc1ccc(C(=O)NCCc2ccc(F)cc2)o1` ?
140
